- Test system: foxtail, giant (Setaria faberii)
- Protocol Summary: Test A preemergence, giant foxtail
- Format: in vivo
- Condition Summary: 125 g ai/ha, 0 to 100 scale (0 no effect, 100 complete control)
For each record, check the reported Plant response rating, Foxtail, Giant: if it is below 40 write 1, else write 0.

Here's an entry: C[Si](C)(C)C#Cc1cccc(C2CNC(=O)C2C(=O)Nc2cccc(F)c2F)c1 (stereo not shown) [Compound 33] . Is its Plant response rating, Foxtail, Giant below 40? 0

Here's an entry: O=C1NCC(c2cccc(Cn3cccn3)c2)C1C(=O)Nc1ccccc1Cl (stereo not shown) [Compound 29] . Is its Plant response rating, Foxtail, Giant below 40? 1

Here's an entry: CC1(COc2cccc(C3CNC(=O)C3C(=O)Nc3ccccc3F)c2)COC1 (stereo not shown) [Compound 14] . Is its Plant response rating, Foxtail, Giant below 40? 1

Here's an entry: CN1CC(c2cccc(Oc3ccc(F)cn3)c2)C(C(=O)Nc2cccc(F)c2C#N)C1=O (single isomer, unassigned) [Compound 89] . Is its Plant response rating, Foxtail, Giant below 40? 0

Here's an entry: O=C1NCC(c2cccc(OCc3ccccc3)c2)C1C(=O)Nc1cccc(F)c1F (stereo not shown) [Compound 65] . Is its Plant response rating, Foxtail, Giant below 40? 1

Here's an entry: O=C1NCC(c2cccc(OCc3ccco3)c2)C1C(=O)Nc1ccccc1Cl (stereo not shown) [Compound 1] . Is its Plant response rating, Foxtail, Giant below 40? 1

Where do these numbers come from? They come from patent US10405547B2.
